- TARGET_DESC: 5-hydroxytryptamine receptor 1A (Rattus norvegicus, UniProt P19327)
- Sequence (P19327 whole entry): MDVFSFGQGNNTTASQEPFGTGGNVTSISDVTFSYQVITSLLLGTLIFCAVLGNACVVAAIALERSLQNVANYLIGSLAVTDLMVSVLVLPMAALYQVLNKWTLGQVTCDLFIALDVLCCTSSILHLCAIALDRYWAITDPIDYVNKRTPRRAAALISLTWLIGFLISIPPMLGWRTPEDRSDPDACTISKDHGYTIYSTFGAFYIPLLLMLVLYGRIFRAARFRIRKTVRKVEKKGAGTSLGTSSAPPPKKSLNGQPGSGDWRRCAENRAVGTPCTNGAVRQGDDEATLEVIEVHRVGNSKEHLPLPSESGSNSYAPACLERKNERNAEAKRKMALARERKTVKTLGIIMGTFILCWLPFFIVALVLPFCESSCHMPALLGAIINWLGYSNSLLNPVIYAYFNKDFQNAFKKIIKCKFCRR
- TEST_PROTOCOL: Displacement of [3H]-8-OH-DPAT from 5HT1A receptor in rat brain hippocampus incubated for 60 mins by radioligand binding assay
PROPERTY: Ki (nM)
Number only, in nM; omit the unit.

Can you look up the measured Ki of `O=c1ccc2ccc(OCCCCN3CCN(c4cccc5sccc45)CC3)cc2[nH]1` for me?
0.09

###

5-hydroxytryptamine receptor 6 (Homo sapiens, UniProt P50406): reported Ki for various compounds.
Sequence (P50406 whole entry): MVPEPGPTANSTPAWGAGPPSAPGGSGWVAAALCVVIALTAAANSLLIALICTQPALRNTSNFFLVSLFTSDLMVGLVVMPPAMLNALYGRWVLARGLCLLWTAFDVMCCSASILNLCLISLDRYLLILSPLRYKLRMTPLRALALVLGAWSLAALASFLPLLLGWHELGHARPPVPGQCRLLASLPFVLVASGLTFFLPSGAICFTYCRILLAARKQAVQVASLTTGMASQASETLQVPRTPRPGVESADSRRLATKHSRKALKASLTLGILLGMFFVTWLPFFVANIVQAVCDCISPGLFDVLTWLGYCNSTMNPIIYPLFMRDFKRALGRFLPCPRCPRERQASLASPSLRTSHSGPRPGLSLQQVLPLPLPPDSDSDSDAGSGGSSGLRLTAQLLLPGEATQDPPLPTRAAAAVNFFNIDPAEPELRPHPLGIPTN
Number only, in nM; omit the unit.

Guide cases for Ki, answers given:
CHEMICAL_STRUCTURE	NUMERIC_READOUT
O=C1c2ccccc2S(=O)(=O)N1CCCCCCN1CCN(c2ccccc2C(F)(F)F)CC1	1270
O=C1c2ccccc2S(=O)(=O)N1CCCCCCN1CCN(c2cccc(Cl)c2Cl)CC1	920
O=C1c2ccccc2S(=O)(=O)N1CCCCCCN1CCN(c2cccc(C(F)(F)F)c2)CC1	52
O=C1c2ccccc2S(=O)(=O)N1CCCCCCN1CCN(c2ncccn2)CC1	104

Here is another compound to look at.
// fetch 5-hydroxytryptamine receptor 6 (Homo sapiens, UniProt P50406) Ki for `COc1cccc(N2CCN(CCCCCCN3C(=O)c4ccccc4S3(=O)=O)CC2)c1`
921
